Tested on: HSkMC (human skeletal muscle cells)
EXPERIMENT_NOTES: cytotoxicity call (relative viability < 0.9)
CONDITION_INFO: 10 µM
Hit rate of the full screen: of about 39,000 compounds, about 1,500 (3.8%) were called active. The sample holds actives, similar compounds and a random draw of the others, so the mix is not that of the screen.
Possible outcomes: y for active, n for inactive

>>> print(df.to_string())
                                entry_smiles  assigned_class
 0  C[C@@H]1CCCCO[C@@H](CN(C)C(=O)Nc2ccc(C(F)(F)F)cc2)[C@H](C)CN([C@H](C)CO)C(=O)c2cc(NC(=O)Cc3ccccc3)ccc2O1               n
 1  C[C@@H]1CN([C@H](C)CO)C(=O)c2cc(NC(=O)C3CCCCC3)ccc2O[C@@H](C)CCCCO[C@H]1CN(C)S(=O)(=O)c1ccccc1               n
 2  CCCc1nc2c(C)cc(-c3nc4ccccc4n3C)cc2n1Cc1ccc(-c2ccccc2C(=O)O)cc1               n
 3  COc1ccc(NC(=O)N(C)C[C@@H]2OCCCC[C@H](C)Oc3ccc(NS(=O)(=O)c4ccc(F)cc4)cc3C(=O)N([C@H](C)CO)C[C@H]2C)cc1               n
 4  Cc1ccc(S(=O)(=O)N(C)C[C@@H]2Oc3ncc(C#CC4(O)CCCC4)cc3C(=O)N([C@@H](C)CO)C[C@@H]2C)cc1               n
 5  C[C@@H]1CN([C@H](C)CO)C(=O)c2c(c3ccccc3n2C)-c2ccccc2CO[C@H]1CN(C)C(=O)Nc1ccc(-c2ccccc2)cc1               n
 6                    CC(=O)CNC(=O)Cc1ccccc1               n
 7  C[C@H]1CN([C@@H](C)CO)C(=O)c2cc(NC(=O)Nc3ccc(C(F)(F)F)cc3)ccc2O[C@H]1CN(C)Cc1ccc(Oc2ccccc2)cc1               y
 8  COc1ccc(S(=O)(=O)Nc2ccc3c(c2)C(=O)N([C@@H](C)CO)C[C@H](C)[C@H](CN(C)S(C)(=O)=O)OCCCC[C@@H](C)O3)cc1               n
 9  C[C@H]1CN([C@@H](C)CO)C(=O)Cc2cc(NS(=O)(=O)c3ccc(Cl)cc3)ccc2O[C@H]1CN(C)Cc1ccc(C(F)(F)F)cc1               y
10  C[C@H](CO)N1C[C@H](C)[C@@H](CN(C)Cc2ccc(-c3ccccc3)cc2)OCc2ccccc2-c2c(n(C)c3ccccc23)C1=O               n
11  CN(C)CCCNC(=O)C[C@H]1CC[C@H]2[C@@H](COC[C@H](O)CN2C(=O)Nc2cc(Cl)cc(Cl)c2)O1               n
12  C[C@H](CO)N1C[C@H](C)[C@@H](CN(C)Cc2ccc(C(F)(F)F)cc2)Oc2ccc(NS(=O)(=O)c3ccc(Cl)cc3)cc2CC1=O               n
13  CO[C@H]1CN(C)C(=O)c2cc(NC(=O)c3ccccc3)ccc2OC[C@H](C)N(C(=O)CN(C)C)C[C@@H]1C               n
14  O=C(C[C@@H]1CC[C@@H]2NC[C@H](O)COC[C@H]2O1)NCCN1CCCCC1               n
